Give TGI for every item shown.
# Tested on: SNB-75 CNS
# ASSAY_OVERVIEW: NCI tumour cell line growth inhibition, 48 h
Express your answer in µM, writing the number without its unit.

Exercise: May I ask what TGI has been recorded for Nc1ncnc2c1c(C(F)(F)F)cn2[C@@H]1O[C@H](CO)[C@@H](O)[C@H]1O ?
Key: 3.62

Exercise: Same lookup for CCCCC[C@@H]1OCO[C@@]2(C)/C=C(C)/C=C/C(=O)O[C@H]([C@@H](C)[C@@H](O)[C@H](C)[C@@]3(O)C[C@@H](O[C@H]4C[C@@H](O)[C@H](O)[C@@H](C)O4)[C@H](C)[C@@H](C)O3)[C@@H](OC)/C=C/C=C(\C)C[C@@H]1[C@@H]2O (stereo in doubt) , please.
Key: 2.64

---

# Tested on: NCI-H226 lung
# ASSAY_OVERVIEW: NCI tumour cell line growth inhibition, 48 h
Give TGI for every item shown.
Express your answer in µM, writing the number without its unit.

Exercise: May I ask what TGI has been recorded for CC(NC(=O)/C(=C/c1ccccc1O)NC(=O)c1ccccc1)C(=O)O (configuration not stated) ?
Key: 45.5

Exercise: Same lookup for COc1cc(C)c(C(=O)O[C@H]2[C@H](O[C@H]3[C@@H](O)COC(O[C@H]4C[C@H]5[C@@H]6CC=C7C[C@@H](O)CC[C@]7(C)[C@H]6CC[C@]5(C)[C@H]4[C@H](C)C(=O)CCC(C)C)[C@@H]3OC(C)=O)OC[C@@H](O)[C@@H]2O)c(C)c1 (some centres not stated) , please.
Key: 12.4

Exercise: Same lookup for COC(=O)C1=C(O)C(C(=O)OC)[C@@]2(O)[C@@H](C(=O)OC)C(c3ccc(OC(=O)/C(=C/c4ccc(Cl)cc4)c4ccc(Cl)cc4)cc3)C[C@@H]1[C@@H]2C(=O)OC (some centres not stated) , please.
Key: 63.9

Exercise: Same lookup for c1ccc2c(CNCCCCCCNCc3cccc4ccccc34)cccc2c1 , please.
Key: 31.6

Exercise: Same lookup for O=C(NCc1cccnc1)/C(=C\c1ccc(Br)cc1)S(=O)(=O)c1ccccc1 , please.
Key: 2.67

---

# Test system: T-47D breast
# ASSAY_OVERVIEW: NCI tumour cell line growth inhibition, 48 h
REPORTED_METRIC: TGI

Exercise: May I ask what TGI has been recorded for Nc1ccc(-c2nc3ccc4[nH]ncc4c3c3c2CCCC3)cc1F ?
Key: 7.77 µM

Exercise: Same lookup for O=C(O)C(CCc1ccccn1)c1ccccc1 (stereo unspecified) , please.
Key: > 100 µM

Exercise: Same lookup for O=C(/C=C/c1ccc(-c2ccccc2[N+](=O)[O-])o1)NCc1ccc(C(=O)NCCc2ccccc2)cc1 , please.
Key: > 100 µM

Exercise: Same lookup for S=C(N/N=C\C=N/NC(=S)N1CCCCCC1)N1CCCCCC1 , please.
Key: 21.8 µM

Exercise: Same lookup for O=C(Nn1c(-c2ccccc2)nc2ccccc2c1=O)c1ccccn1 , please.
Key: > 100 µM

Exercise: Same lookup for CC(=O)OCC1OC(OC2C(COC(C)=O)OC(OCCC[S-])C(OC(C)=O)C2OC(C)=O)C(OC(C)=O)C(OC(C)=O)C1OC(C)=O.[Au+].c1ccc(CN2[CH-]N(Cc3ccccc3)C(c3ccccc3)=C2c2ccccc2)cc1 (stereo unspecified) , please.
Key: 18.5 µM

Exercise: Same lookup for N#CC1=C(N)C(C#N)(C#N)C(c2ccc(F)cc2)C=C1C1CC1 (stereo unspecified) , please.
Key: 29 µM

Exercise: Same lookup for C=C(CN1CCN(c2ccccc2OC)CC1)c1ccc(C(=O)Nc2ccccc2N)cc1 , please.
Key: 45.2 µM

Exercise: Same lookup for COc1ccc(C(=O)c2cc(OC)c(OC)c(OC)c2)cc1OC(C)=O , please.
Key: > 100 µM

Exercise: Same lookup for S=c1nc[nH]c2c1ncn2Cc1ccco1 , please.
Key: > 100 µM

Exercise: Same lookup for Cc1c2c3cc(O)ccc3nc-2n(C)c2ccccc12 , please.
Key: 17.1 µM

Exercise: Same lookup for COc1cc(-c2cc(-c3ccc(N(C)C)cc3)nc(N3CCOCC3)c2C#N)cc(OC)c1OC , please.
Key: > 22.5 µM

Exercise: Same lookup for CCOC(=O)c1ccc(C(=O)C(C(C)=O)C(=O)OC(C)(C)C)n1C (stereo unspecified) , please.
Key: > 100 µM

Exercise: Same lookup for Cc1cc2ccccc2n1CC(=O)NCC(C)C , please.
Key: > 100 µM

Exercise: Same lookup for COc1ccc(C(O)c2ccc3c(c2)OCO3)cc1 (stereo unspecified) , please.
Key: > 100 µM

Exercise: Same lookup for COc1ccc(OC)c(-c2nc3sccn3c2/C=C2/C(=O)Nc3ccc(Cl)cc32)c1 , please.
Key: 70.1 µM

Exercise: Same lookup for CN1/C(=C\C(I)C(I)C2=[N+](C)c3ccccc3C2(C)C)C(C)(C)c2ccccc21 (stereo unspecified) , please.
Key: 9.39 µM

Exercise: Same lookup for CC1(C)N=C(N)N=C(N)N1c1cccc(C#N)c1 , please.
Key: > 100 µM

Exercise: Same lookup for O=c1[nH]cc(CS(=O)(=O)Cc2c[nH]c(=O)[nH]c2=O)c(=O)[nH]1 , please.
Key: > 100 µM

Exercise: Same lookup for OCC1OC(n2cnc3cccnc32)CC1O (stereo unspecified) , please.
Key: > 100 µM

Exercise: Same lookup for COc1ccccc1/C=C\c1cnnc2ccccc12 , please.
Key: > 10 µM
